tested on: L-1210 mouse leukemia cells; experiment: Activation of macrophages (growth inhibition of tumor cells by intraperitoneal macrophages of treated mice, MTT assay); format: cell-based; conditions: macrophages taken 3 days after i.p. 0.2 ml of 500 μg/ml, macrophage:L-1210 20:1, 72 hours
reported metric: Growth inhibitory ratio of L-1210 mouse leukemia cells (%)
// note: answer is a bare numeric in %

[in] Dear colleague, I am looking for the recorded Growth inhibitory ratio of L-1210 mouse leukemia cells of the following molecule: CCCCCCCCCCCCCCC(CCCCCCCCCCCCCC)C(=O)S[C@@H]1O[C@H](CO)[C@@H](O)[C@H](O[C@H](C)C(=O)N[C@@H](C)C(=O)N[C@H](CCC(=O)OC)C(N)=O)[C@H]1NC(C)=O [Example 2]
[out] 41.3

[in] Dear colleague, I am looking for the recorded Growth inhibitory ratio of L-1210 mouse leukemia cells of the following molecule: CCCCCCCCCCCCCC(=O)O[C@H](CCCCCCCCCCC)CC(=O)S[C@@H]1O[C@H](COC(=O)CCCCCCCCC)[C@@H](O)[C@H](O[C@H](C)C(=O)N[C@@H](C)C(=O)N[C@H](CCC(=O)OC)C(N)=O)[C@H]1NC(C)=O [Example 14]
[out] 96.4

[in] Dear colleague, I am looking for the recorded Growth inhibitory ratio of L-1210 mouse leukemia cells of the following molecule: CCCCCCCCCCCCCCC(CCCCCCCCCCCCCC)C(=O)O[C@H]1O[C@H](CO)[C@@H](O)[C@H](O[C@H](C)C(=O)N[C@@H](C)C(=O)N[C@H](CCC(=O)OC)C(N)=O)[C@H]1NC(C)=O [Example 1]
[out] 40.0
